Hi there, I'd appreciate the recorded Ki for every entry that follows.
assayed.target: δ-opioid receptor (Homo sapiens)
Construct: expressed in transfected cells; host or cells: CHO cells
Sequence (P41143 whole entry): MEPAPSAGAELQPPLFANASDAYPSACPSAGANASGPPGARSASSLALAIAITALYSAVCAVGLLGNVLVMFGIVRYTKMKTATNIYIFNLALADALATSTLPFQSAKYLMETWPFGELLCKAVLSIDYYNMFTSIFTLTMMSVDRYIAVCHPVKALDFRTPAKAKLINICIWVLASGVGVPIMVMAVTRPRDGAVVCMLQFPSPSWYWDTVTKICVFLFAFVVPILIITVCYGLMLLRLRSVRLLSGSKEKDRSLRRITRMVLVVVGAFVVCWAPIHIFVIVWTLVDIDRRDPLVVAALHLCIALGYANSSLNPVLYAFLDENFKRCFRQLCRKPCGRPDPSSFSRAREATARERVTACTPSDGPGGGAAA
assay.notes: biochemical
Assay type: binding
measurement.context: Table 1b, N-oxides; read-out: Ki (nM) ± SEM, δ
# value in nM; strip the unit string

Answer with reported Ki of CN(C(=O)c1ccc(C(C)(C)C)cc1)[C@@H]1CC[C@@]2(O)[C@H]3Cc4ccc(O)c5c4[C@@]2(CC[N+]3([O-])CC2CC2)[C@H]1O5 (some centres unmarked) [Compound 27]
535

Input CN(C)c1ccc(C(=O)N[C@@H]2CC[C@@]3(O)[C@H]4Cc5ccc(O)c6c5[C@@]3(CC[N+]4([O-])CC3CC3)[C@H]2O6)cc1 (some centres unmarked) [Compound 24] , output reported Ki.
5850

Write down Ki measured for item CN(C(=O)c1ccc(C(C)(C)C)cc1)[C@H]1CC[C@@]2(O)[C@H]3Cc4ccc(O)c5c4[C@@]2(CC[N+]3([O-])CC2CC2)[C@H]1O5 (some centres unmarked) [Compound 48]
148

// Input: CN(C(=O)c1ccc(Cl)cc1)[C@H]1CC[C@@]2(O)[C@H]3Cc4ccc(O)c5c4[C@@]2(CC[N+]3([O-])CC2CC2)[C@H]1O5 (some centres unmarked) [Compound 50] . Output its Ki only.
3330

Note down Ki recorded for O=C(Cc1cccs1)N[C@@H]1CC[C@@]2(O)[C@H]3Cc4ccc(O)c5c4[C@@]2(CC[N+]3([O-])CC2CC2)[C@H]1O5 (some centres unmarked) [Compound 25]
752

Where do the numbers come from? From patent US8778958B2.
